Taken from ChEMBL document CHEMBL3632556.

Measured viability at 48 h, 1 µM, listed per entry for reference.
experiment: Cytotoxicity against human HaCaT cells assessed as cell survival at 1 uM after 48 hrs by MTT assay (reference value: 97.50 +/- 0.71%); type: cell-based; conditions: read-out: Survival

molecule	viability at 48 h, 1 µM
O=C(O)CC1c2cccc(O)c2C(=O)c2c(O)cccc21	60.4%
O=C1c2c(O)cccc2Cc2cccc(O)c21 [ANTHRALIN]	48.1%
COc1ccc(C(NC(=O)CC2c3cccc(O)c3C(=O)c3c(O)cccc32)c2ccc(OC)cc2)cc1	38%
O=C(CC1c2cccc(O)c2C(=O)c2c(O)cccc21)NCCc1ccc(O)c(O)c1	112%

====

assay: Antioxidant activity assessed as inhibition of AAPH-induced linoleic acid lipid peroxidation at 100 uM; assay type: physicochemical
Outcome: true for inhibition (INH) of at least 70%; false for anything lower.

molecule	assignedCategory
NCCCCN(CCCN)C(=O)CC1c2cccc(O)c2C(=O)c2c(O)cccc21.O=C(O)C(F)(F)F.O=C(O)C(F)(F)F	true
O=C(O)CC1c2cccc(O)c2C(=O)c2c(O)cccc21	false
CC(C)(C)OC(=O)NCCCN(CCCCN(CCCNC(=O)CC1c2cccc(O)c2C(=O)c2c(O)cccc21)C(=O)OC(C)(C)C)C(=O)OC(C)(C)C	true
NCCc1ccc(O)c(O)c1	false
O=C(CC1c2cccc(O)c2C(=O)c2c(O)cccc21)NCc1ccccc1	false
COc1ccc(C(NC(=O)CC2c3cccc(O)c3C(=O)c3c(O)cccc32)c2ccc(OC)cc2)cc1	true
CCCCCCCCCCCCNC(=O)CC1c2cccc(O)c2C(=O)c2c(O)cccc21	true
CCOC(=O)CC1c2cccc(O)c2C(=O)c2c(O)cccc21	false
CC(C)(C)OC(=O)NCCCCNC(=O)CC1c2cccc(O)c2C(=O)c2c(O)cccc21	false
O=C1c2c(O)cccc2Cc2cccc(O)c21	false
Cc1c(C)c2c(c(C)c1O)CCC(C)(C(=O)O)O2 (stereo unspecified)	false
CCCCNC(=O)CC1c2cccc(O)c2C(=O)c2c(O)cccc21	false
NCCCNCCCCNCCCNC(=O)CC1c2cccc(O)c2C(=O)c2c(O)cccc21.O=C(O)C(F)(F)F.O=C(O)C(F)(F)F.O=C(O)C(F)(F)F	true
COc1ccc(CNC(=O)CC2c3cccc(O)c3C(=O)c3c(O)cccc32)c(OC)c1	true
CC(C)(C)OC(=O)CC1c2cccc(O)c2C(=O)c2c(O)cccc21	true
O=C(CC1c2cccc(O)c2C(=O)c2c(O)cccc21)NCCc1ccc(O)c(O)c1	false
NCCCCNC(=O)CC1c2cccc(O)c2C(=O)c2c(O)cccc21.O=C(O)C(F)(F)F	true
COc1ccc(CNC(=O)CC2c3cccc(O)c3C(=O)c3c(O)cccc32)cc1OC	false
COc1ccc(C(NC(C)=O)c2ccc(OC)cc2)cc1	true

====

experiment: Cytotoxicity against human HaCaT cells assessed as cell survival at 0.1 uM after 48 hrs by MTT assay (reference value: 96.75 +/- 1.77%); type: cell-based; conditions: read-out: Survival
Could you please mark satisfied for values of viability at 48 h, 0.1 µM below 80% and not satisfied for values at or above it?

smilesStructure	assignedCategory
O=C1c2c(O)cccc2Cc2cccc(O)c21	not satisfied
O=C(CC1c2cccc(O)c2C(=O)c2c(O)cccc21)NCCc1ccc(O)c(O)c1	not satisfied
CCCCCCCCCCCCNC(=O)CC1c2cccc(O)c2C(=O)c2c(O)cccc21	satisfied
COc1ccc(C(NC(=O)CC2c3cccc(O)c3C(=O)c3c(O)cccc32)c2ccc(OC)cc2)cc1	satisfied
COc1ccc(CNC(=O)CC2c3cccc(O)c3C(=O)c3c(O)cccc32)c(OC)c1	not satisfied
COc1ccc(CNC(=O)CC2c3cccc(O)c3C(=O)c3c(O)cccc32)cc1OC	satisfied
O=C(O)CC1c2cccc(O)c2C(=O)c2c(O)cccc21	satisfied
CCCCNC(=O)CC1c2cccc(O)c2C(=O)c2c(O)cccc21	not satisfied
CCOC(=O)CC1c2cccc(O)c2C(=O)c2c(O)cccc21	satisfied
